Target: hNET (Homo sapiens, UniProt P23975)
Construct: expressed in transfected cells; host or cells: HEK-293 derived cell line, stably transfected; membrane preparation
Sequence (P23975 whole entry): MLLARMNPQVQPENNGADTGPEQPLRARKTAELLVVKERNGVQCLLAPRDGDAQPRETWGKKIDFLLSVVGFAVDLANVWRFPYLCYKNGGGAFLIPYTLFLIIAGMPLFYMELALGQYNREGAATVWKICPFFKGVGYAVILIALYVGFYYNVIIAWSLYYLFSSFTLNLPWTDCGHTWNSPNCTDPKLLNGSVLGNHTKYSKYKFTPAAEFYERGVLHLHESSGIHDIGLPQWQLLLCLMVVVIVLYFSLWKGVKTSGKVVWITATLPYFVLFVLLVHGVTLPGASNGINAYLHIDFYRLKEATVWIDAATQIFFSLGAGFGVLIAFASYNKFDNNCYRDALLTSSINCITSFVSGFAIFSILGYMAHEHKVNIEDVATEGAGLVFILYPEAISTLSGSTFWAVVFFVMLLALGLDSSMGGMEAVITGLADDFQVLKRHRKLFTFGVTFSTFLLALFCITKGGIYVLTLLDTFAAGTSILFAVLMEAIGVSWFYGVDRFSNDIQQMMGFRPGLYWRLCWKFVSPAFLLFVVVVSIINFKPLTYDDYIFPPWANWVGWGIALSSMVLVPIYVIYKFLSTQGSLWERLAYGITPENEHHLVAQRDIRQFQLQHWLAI
Assay: hNET binding assay (Assay 1)
Conditions: hNET binding; the tables list only compounds with NET pKi≧8; read-out: NET pKi (converted)
Measured Parameter: Ki (nM)
Answers are plain numbers, in nM.

- Compound: "Fc1cc(Cl)cc(F)c1O[C@@H](c1ccccc1)[C@H]1CCNC1 [44-9]"
  Unit Info: "nM"
  Result Value: 2.51
- Compound: "COC(=O)c1cc(F)cc(F)c1O[C@@H](c1ccccc1)[C@H]1CCNC1 [44-28]"
  Unit Info: "nM"
  Result Value: 1
- Compound: "Fc1cc(Cl)cc(F)c1OC(c1ccccc1)C1CCNC1 (stereo not shown) [44-8]"
  Unit Info: "nM"
  Result Value: 3.98

Shifting focus to the compound that follows.
The compound identified as Fc1cc(F)cc([C@H](Oc2c(F)cc(F)cc2F)[C@H]2CCNC2)c1 [45-1] registered its Ki at 3.98

---

Molecular target: hNET (Homo sapiens)
Construct: expressed in transfected cells; host or cells: HEK-293 derived cell line, stably transfected; membrane preparation
Experiment: hNET binding assay (Assay 1)
Settings: hNET binding; read-out: NET pKi (converted)
Exercise: state measured Ki for each of the compounds provided.
Numbers only, in nM.

Please review the entries below; each comes with its answer.
- Compound: "Fc1ccc(Cl)c(F)c1O[C@@H](c1ccccc1)[C@H]1CCNC1"
  Ki / nM: 0.158
- Compound: "Cc1ccc(Cl)c(OC(c2ccccc2)C2CCNC2)c1F (centres unmarked)"
  Ki / nM: 0.251
- Compound: "Fc1cc(F)c(F)c(O[C@H](c2ccccc2)[C@@H]2CCNC2)c1"
  Ki / nM: 5.01
- Compound: "Cc1ccc(C(Oc2cc(Cl)cc(Cl)c2)C2CCNC2)cc1 (centres unmarked)"
  Ki / nM: 7.94
- Compound: "Cc1cc(Cl)c(OC(c2ccccc2)C2CCNC2)cc1F (centres unmarked)"
  Ki / nM: 2.51
- Compound: "Cc1ccc(F)c(O[C@@H](c2ccccc2)[C@H]2CCNC2)c1F"
  Ki / nM: 0.251
- Compound: "Cc1ccc(Cl)c(O[C@H](c2ccccc2)[C@@H]2CCNC2)c1F"
  Ki / nM: 0.794
- Compound: "Cc1ccc(Cl)c(O[C@H](c2cc(F)cc(F)c2)[C@@H]2CCNC2)c1F"
  Ki / nM: 0.794
- Compound: "COc1cc(Cl)c(F)cc1OC(c1cc(F)cc(F)c1)C1CCNC1 (centres unmarked)"
  Ki / nM: 2
- Compound: "Fc1cc(F)c(OC(c2ccccc2)C2CCNC2)cc1F (centres unmarked)"
  Ki / nM: 7.94

For each of the compounds below, state Ki.
1. Cc1ccc(F)c(OC(c2ccccc2)C2CCNC2)c1F (centres unmarked)
2. Fc1cc(F)cc(C(Oc2c(F)ccc(F)c2F)C2CCNC2)c1 (centres unmarked)
3. Fc1cc(F)cc([C@@H](Oc2c(F)ccc(F)c2Cl)[C@@H]2CCNC2)c1

Result:
0.501
2.51
0.251

For each of the compounds below, state Ki.
1. Cc1c(F)ccc(OC(c2ccccc2)C2CCNC2)c1F (centres unmarked)
2. Fc1cc(F)cc(C(Oc2c(F)ccc(Cl)c2F)C2CCNC2)c1 (centres unmarked) [41-5]
3. Cc1ccc(F)c(O[C@@H](c2ccccc2)[C@@H]2CCNC2)c1Cl
4. Fc1cc(F)cc([C@H](Oc2c(F)ccc(F)c2F)[C@H]2CCNC2)c1
5. Fc1cc(F)c(Cl)c(O[C@@H](c2ccccc2)[C@H]2CCNC2)c1
6. Fc1cc(F)cc(C(Oc2c(F)ccc(Cl)c2F)C2CCNC2)c1 (centres unmarked) [41-6]
7. Cc1ccc(F)c(OC(c2cc(F)cc(F)c2)C2CCNC2)c1F (centres unmarked)

Result:
1: 5.01; 2: 0.2; 3: 5.01; 4: 0.251; 5: 2; 6: 0.501; 7: 1

For each of the compounds below, state Ki.
1. Cc1ccc(Cl)c(OC(c2cc(F)cc(F)c2)C2CCNC2)c1Cl (racemic)
2. COc1ccc(F)c(F)c1OC(c1cc(F)cc(F)c1)C1CCNC1 (centres unmarked)
3. Cc1ccc(Cl)c(OC(c2ccc(Cl)cc2)C2CCNC2)c1Cl (centres unmarked)

Result:
1. 0.501
2. 1
3. 1.26

---

Molecular target: hSERT (Homo sapiens, UniProt P31645)
Construct: expressed in transfected cells; host or cells: HEK-293 derived cell line, stably transfected; membrane preparation
Sequence (P31645 whole entry): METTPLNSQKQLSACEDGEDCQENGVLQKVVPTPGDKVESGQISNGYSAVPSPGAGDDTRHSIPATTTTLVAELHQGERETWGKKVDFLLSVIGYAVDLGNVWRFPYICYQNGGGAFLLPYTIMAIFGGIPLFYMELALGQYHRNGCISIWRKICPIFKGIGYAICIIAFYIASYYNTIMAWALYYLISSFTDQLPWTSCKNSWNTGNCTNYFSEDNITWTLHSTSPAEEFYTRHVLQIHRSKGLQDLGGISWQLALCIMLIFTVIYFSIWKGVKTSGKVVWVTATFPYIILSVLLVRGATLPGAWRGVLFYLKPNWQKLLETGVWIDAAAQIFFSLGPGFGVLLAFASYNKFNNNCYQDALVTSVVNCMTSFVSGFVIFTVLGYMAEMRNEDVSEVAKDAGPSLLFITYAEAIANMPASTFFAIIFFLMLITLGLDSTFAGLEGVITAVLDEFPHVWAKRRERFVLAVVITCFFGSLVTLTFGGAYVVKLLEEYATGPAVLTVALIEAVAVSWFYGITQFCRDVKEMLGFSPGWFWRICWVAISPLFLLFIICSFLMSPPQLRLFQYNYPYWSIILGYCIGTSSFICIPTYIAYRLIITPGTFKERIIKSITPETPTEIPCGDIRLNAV
Assay: hSERT binding assay (Assay 1)
Settings: ratio of SERT Ki to NET Ki from binding assays
Measured Parameter: SERT Ki/NET Ki
Answers are plain numbers.

- Molecule: "Fc1ccccc1C(Oc1cccc(Cl)c1Cl)C1CCNC1 (centres unmarked) [Compound 26-1]"
  SERT Ki/NET Ki: 0.1
- Molecule: "COc1ccc(F)cc1OC(c1cc(F)cc(F)c1)C1CCNC1 (centres unmarked) [30-6]"
  SERT Ki/NET Ki: 0.4
- Molecule: "COc1cccc(F)c1OC(c1ccccc1)C1CCNC1 (centres unmarked) [31-15]"
  SERT Ki/NET Ki: 2

For each of the molecules below, state SERT Ki/NET Ki.
1. Fc1ccc(Br)cc1OC(c1ccccc1)C1CCNC1 (centres unmarked) [29-7]
2. Fc1ccc(Cl)cc1O[C@@H](c1ccccc1)[C@H]1CCNC1 [29-5]
3. COc1cccc(F)c1O[C@@H](c1ccccc1)[C@H]1CCNC1 [31-16]

Result:
1.6
16
79

For each of the molecules below, state SERT Ki/NET Ki.
1. Fc1cc(F)cc(C(Oc2cc(Cl)ccc2Cl)C2CCNC2)c1 (centres unmarked) [32-24]
2. COc1cc(F)ccc1OC(c1cc(F)cc(F)c1)C1CCNC1 (centres unmarked) [28-17]
3. COc1ccc(Cl)cc1OC(c1ccccc1)C1CCNC1 (centres unmarked) [29-21]
4. N#Cc1cccc([C@H](Oc2ccc(Cl)cc2F)[C@H]2CCNC2)c1 [28-3]
5. Fc1cc(F)cc([C@H](Oc2cc(Cl)ccc2Cl)[C@H]2CCNC2)c1 [30-4]
6. Fc1ccc(F)c(OC(c2ccccc2)C2CCNC2)c1 (racemic) [29-1]
7. Cc1ccc(F)cc1OC(c1ccccc1)C1CCNC1 (centres unmarked) [29-16]
8. Clc1cccc(C(Oc2cccc(Cl)c2Cl)C2CCNC2)c1 (centres unmarked) [Compound 26-3]

Result:
1: 7.9; 2: 25; 3: 1; 4: 0.5; 5: 2.5; 6: 4; 7: 7.9; 8: 0.1

---

Exercise: state measured SERT Ki/NET Ki for each of the compounds provided.
Target: hSERT (Homo sapiens)
Construct: expressed in transfected cells; host or cells: HEK-293 derived cell line, stably transfected; membrane preparation
Test: hSERT binding assay (Assay 1)
Details: ratio of SERT Ki to NET Ki (binding)
Excerpt: Membrane radioligand binding assays were used to measure competitive inhibition of labeled ligand (^3H-citalopram or ^3H-nisoxetine or ^3H-WIN35428) binding to membranes prepared from cells expressing the respective human recombinant transporter (hSERT or hNET or hDAT) in order to determine the pKi values of test compounds at the transporters. […]
Give bare numbers.

Please review the entries below; each comes with its answer.
- Compound: "Fc1cc(F)cc(C(Oc2cc(F)cc(F)c2F)C2CCNC2)c1 (stereo not shown)"
  Result Value: 0.4
- Compound: "Fc1ccc(Cl)c(F)c1OC(c1ccccc1)C1CCNC1 (stereo not shown) [40-15]"
  Result Value: 1.3
- Compound: "Fc1cc(F)cc(C(Oc2c(F)ccc(Cl)c2F)C2CCNC2)c1 (stereo not shown) [41-6]"
  Result Value: 1

For each of the compounds below, state SERT Ki/NET Ki.
1. Fc1c(Cl)ccc(O[C@@H](c2ccccc2)[C@H]2CCNC2)c1F
2. Fc1cc(F)c(OC(c2ccccc2)C2CCNC2)cc1F (stereo not shown)
3. N#Cc1cccc([C@@H](Oc2c(F)ccc(F)c2Cl)[C@@H]2CCNC2)c1

Result:
1. 0.1
2. 1.6
3. 0.4

---

Exercise: state measured SERT Ki/NET Ki for each of the compounds provided.
Molecular target: hSERT (Homo sapiens, UniProt P31645)
Construct: expressed in transfected cells; host or cells: HEK-293 derived cell line, stably transfected; membrane preparation
Assay: hSERT binding assay (Assay 1)
Conditions: ratio of SERT Ki to NET Ki (binding)
Numbers only.

For each of the compounds below, state SERT Ki/NET Ki.
1. Fc1ccc(O[C@@H](c2ccccc2)[C@H]2CCNC2)c(F)c1F [36-1]
2. Cc1ccc(Cl)c(OC(c2ccccc2)C2CCNC2)c1Cl (stereo not shown) [40-32]
3. Fc1c(Cl)ccc(OC(c2ccccc2)C2CCNC2)c1Cl (stereo not shown) [36-10]
4. Cc1ccc(OC(c2ccccc2)C2CCNC2)c(F)c1F (stereo not shown) [36-5]

Result:
1. 0.8
2. 1
3. 0.1
4. 0.5

Reference source for all entries: patent US7888386B2
